System: Wnt/β-catenin pathway target genes in A-172 cells
protocol_text: qPCR of β-catenin and Wnt target genes, A-172
Type: cell-based, human
recorded_conditions: A-172, 48 h, mRNA vs DMSO control, single agent, (TMZ 30 µM)
observed_property: Axin2 expression

Entry `COC(=O)c1c(C)cc(OC(=O)c2c(C)cc(O)c(C=O)c2O)c(C)c1O` , Axin2 expression reported as downregulated

Entry CCCCCCCCCCCCCCC(C(=O)O)C(O)(CC(=O)OC)C(=O)O (stereo not shown) , Axin2 expression reported as downregulated

Entry `COc1cc(C)c(C(=O)Oc2cc(C)c(C(=O)O)c(O)c2C)c(O)c1C(=O)O` , Axin2 expression reported as downregulated

----------
System: U-138 MG cells
protocol_text: MTT test, U-138 MG
Type: cell-based, human
recorded_conditions: Homo sapiens, U138-MG, 48 h, three independent experiments, read-out: IC50 [uM] ± SEM U-138 MG
Protocol: Three human GBM cell lines were used in this study, i.e., A-172 (ATCC-CRL-1620), T98G (92090213), and U-138 MG (ATCC-HTB-16). […] In order to analyze the cytotoxicity of the analyzed lichen secondary metabolites, as well as to establish the appropriate concentrations for further analysis (allowing the survival of >70% of cells), we performed the MTT test. […] Afterwards, the analyzed compounds in the concentration range of 1 µM up to 100 µM were added to the cells and left for 48 h incubation. […]
Please go through the items and note down their IC50.

Measured IC50 (U-138 MG cells), entry CCCCCCCCCCCCCCC(C(=O)O)C(O)(CC(=O)OC)C(=O)O (centres unmarked) : > 100 µM

Measured IC50 (U-138 MG cells), entry `COc1cc(C)c(C(=O)Oc2cc(C)c(C(=O)O)c(O)c2C)c(O)c1C(=O)O` : > 100 µM

Measured IC50 (U-138 MG cells), entry `Cc1cc(OC(=O)c2c(C)cc(O)cc2O)cc(O)c1C(=O)O` : > 100 µM

Measured IC50 (U-138 MG cells), entry `COC(=O)c1c(C)cc(OC(=O)c2c(C)cc(O)c(C=O)c2O)c(C)c1O` : 47.8 µM

Measured IC50 (U-138 MG cells), entry Cc1cc(O)c(C=O)c2c1C(=O)Oc1c(CO)c(O)c3c(c1O2)C(O)OC3=O (centres unmarked) : > 100 µM

----------
protocol_text: Parallel artificial membrane permeability assay for the blood-brain barrier (PAMPA-BBB)
Format: in vitro ADME
recorded_conditions: pH 7.4, 4 h, 37 °C, mean ± SEM, n = 3, Pe > 1.5 high, < 1.5 low permeation predicted, read-out: Pe × 10^−6
observed_property: Papp at 4 h, 24.75 µg/mL (×10⁻⁶ cm/s)
Unit ×10⁻⁶ cm/s implied. Number only.

Entry CCCCCCCCCCCCCCC(C(=O)O)C(O)(CC(=O)OC)C(=O)O (centres unmarked) , Papp at 4 h, 24.75 µg/mL reported as 5.2

Entry `COc1cc(C)c(C(=O)Oc2cc(C)c(C(=O)O)c(O)c2C)c(O)c1C(=O)O` , Papp at 4 h, 24.75 µg/mL reported as 0.5

Entry `COC(=O)c1c(C)cc(OC(=O)c2c(C)cc(O)c(C=O)c2O)c(C)c1O` , Papp at 4 h, 24.75 µg/mL reported as 2.2

Entry `Cc1cc(OC(=O)c2c(C)cc(O)cc2O)cc(O)c1C(=O)O` , Papp at 4 h, 24.75 µg/mL reported as 1.7

Entry `CCCCCC(=O)Cc1cc(O)cc2c1C(=O)Oc1cc(O)c(C(=O)O)c(CCCCC)c1O2` , Papp at 4 h, 24.75 µg/mL reported as 3.9
